# test-target: Cholecystokinin receptor type A (Homo sapiens, UniProt P32238); also: in other assays of this panel Not Active means under 50% inhibition at 10 µM
# Sequence (P32238 whole entry): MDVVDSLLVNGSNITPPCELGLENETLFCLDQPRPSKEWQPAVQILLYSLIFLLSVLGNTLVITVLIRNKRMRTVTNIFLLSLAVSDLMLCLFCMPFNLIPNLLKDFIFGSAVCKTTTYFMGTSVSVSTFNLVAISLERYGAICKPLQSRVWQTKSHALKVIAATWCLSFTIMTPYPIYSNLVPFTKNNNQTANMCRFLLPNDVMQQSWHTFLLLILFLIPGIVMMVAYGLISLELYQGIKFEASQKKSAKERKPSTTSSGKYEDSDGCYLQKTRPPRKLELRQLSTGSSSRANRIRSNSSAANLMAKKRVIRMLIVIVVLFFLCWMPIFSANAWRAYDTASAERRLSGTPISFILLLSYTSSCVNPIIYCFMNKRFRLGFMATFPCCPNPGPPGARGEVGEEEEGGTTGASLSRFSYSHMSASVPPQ
# Type: cell membranes, Membrane
# assay-conditions: 1321-n1
quantity-kind: IC50

>>> df
                substance                               test_target  value_measured
0      COBALTOUS CHLORIDE  Cholecystokinin receptor type A (Homo sapiens, UniProt P32238)      Not Active
1             TRANSPLATIN  Cholecystokinin receptor type A (Homo sapiens, UniProt P32238)      Not Active
2                COLISTIN  Cholecystokinin receptor type A (Homo sapiens, UniProt P32238)      Not Active
3  ZIRCONIUM(IV) CHLORIDE  Cholecystokinin receptor type A (Homo sapiens, UniProt P32238)      Not Active
